- System: P388 leukemia ip, CD2F1 mice, survival T/C
- protocol-summary: NCI In Vivo Anticancer Drug Screen. Data for tumor model P388 Leukemia (intraperitoneal) in CD2F1 (CDF1) mice
- measurement-context: endpoint: median survival time; dose: 200.0 mg/kg/injection; schedule: Q01DX005 (ip); vehicle: Klucel (hydroxypropylcellulose) (HPC); higher = longer survival
- Experimental: The antitumor activity of compounds was measured in mice bearing transplantable tumors. Survival or tumor size were measured and the results are expressed as the measurement made in the treated group (T) divided by the measurement made in the vehicle treated control group (C). The tumor model used in this assay is P388 Leukemia (intraperitoneal) in CD2F1 (CDF1) mice
Inconclusive results and toxic doses are left out.
metric: T/C

* CC(=O)CNc1ccccc1C(N)=O | 104 % of control
* COc1ccc2c(C)cc(N/N=C/c3ccc(OC)c4ccccc34)nc2c1 | 94 % of control
* c1ccc(-c2cnn3c(-c4ccccc4)cnnc23)cc1 | 99 % of control
* Cc1cc(=O)n2c([nH]c3ccccc32)c1N=Nc1ccccc1 | 100 % of control

###

Reported T/C values are given for each entry in this list.
- Test system: P388 leukemia ip, CD2F1 mice, survival T/C
- protocol-summary: NCI In Vivo Anticancer Drug Screen. Data for tumor model P388 Leukemia (intraperitoneal) in CD2F1 (CDF1) mice
- measurement-context: endpoint: median survival time; dose: 12.5 mg/kg/injection; schedule: Q01DX009 (ip); vehicle: saline; higher = longer survival
Toxic doses and inconclusive results are not listed.
metric: T/C

• Nc1cccc2nccn12 = 105 % of control
• O=C(O)C1(C(=O)O)CCC1.[NH2-].[NH2-].[Pt+2] = 113 % of control
• O=[N+]([O-])c1cnc(Sc2ccncn2)c([N+](=O)[O-])c1 = 100 % of control
• CCCCCCCCCCN1CCC(N2CCCCC2)CC1 = 98 % of control
• ClCCN(CCCl)c1ccc(CN2CCCCCC2)cc1 = 114 % of control
• CSC(SC)=C1C(=O)NC(=O)NC1=O = 111 % of control
• Cc1ccc(C(CC(=O)O)C(N)C(=O)O)cc1 (configuration not stated) = 98 % of control

###

- Test system: P388 leukemia ip, CD2F1 mice, survival T/C
- protocol-summary: NCI In Vivo Anticancer Drug Screen. Data for tumor model P388 Leukemia (intraperitoneal) in CD2F1 (CDF1) mice
- measurement-context: endpoint: median survival time; dose: 12.5 mg/kg/injection; schedule: Q04DX003 (ip); vehicle: saline with Tween-80
Inconclusive results and toxic doses are left out. The calls were made as follows: active = survival T/C of 150% or more; inactive = T/C below 125% in these data.
Outcomes: active, inactive

• [Cl][Pt].c1ccc([PH+](CCC[PH+](c2ccccc2)c2ccccc2)CCC[PH+](c2ccccc2)c2ccccc2)cc1 = inactive
• CCC1=[N+](C)C(C)(C)CC(C)O1 (stereo not given) = inactive
• CCCCOP(=S)(N1CC1)N1CC1 = active
• CNC(=O)Oc1cccc(NC(=S)SC)c1 = inactive
• O=C(Nc1ccc(C2=NCCN2)cc1)Nc1cccc(NC(=O)Nc2cccc(C3=NCCN3)c2)c1 = active

###

- Tested on: P388 leukemia ip, CD2F1 mice, survival T/C
- protocol-summary: NCI In Vivo Anticancer Drug Screen. Data for tumor model P388 Leukemia (intraperitoneal) in CD2F1 (CDF1) mice
- measurement-context: endpoint: median survival time; dose: 200.0 mg/kg/injection; schedule: Q01DX009 (ip); vehicle: Klucel (hydroxypropylcellulose) (HPC); higher = longer survival
Inconclusive results and toxic doses are left out.
T/C values for the compounds below.
metric: T/C

• CCN(CC)c1c(C)c(-c2ccccc2)oc(=O)c1-c1ccccc1 = 100 % of control
• CS(=O)(=O)OCC(COS(C)(=O)=O)(COS(C)(=O)=O)COS(C)(=O)=O = 94 % of control
• CN1C(=O)C(=O)N(CCCN2CCN(CCCN3C(=O)C(=O)N(C)C3=O)CC2)C1=O = 98 % of control
• N#CC1C(=O)NC(=O)C(C#N)C1c1cccc(O)c1 (stereo unspecified) = 97 % of control
• Cc1cc(OCCS(=O)(=O)C(CCOS(C)(=O)=O)COS(C)(=O)=O)cc(C)c1Cl (stereo unspecified) = 101 % of control
• c1ccc(-c2nn[nH]n2)cc1 = 100 % of control
• Cc1c(Cl)cccc1NC(=O)NNC(=O)c1ccncc1 = 88 % of control
• CSC1=NN(C)C2(CCCCC2)C(=O)N1 = 118 % of control
• Cc1ccc(S(=O)(=O)OCC2(COCc3ccccc3)CCCCC2=O)cc1 (stereo unspecified) = 95 % of control
• CC1(C)OCC(C(OS(C)(=O)=O)C2OC(C)(C)OC2COS(C)(=O)=O)O1 (stereo unspecified) = 99 % of control
• CC(Cl)CN(CC(C)Cl)C(=O)Oc1ccc(CC(N)C(=O)O)cc1 (stereo unspecified) = 97 % of control
